B1: 3'-5' exoribonuclease 1, residues 65 to 114; numbered along this chain, Q8IV48 (parent)
chain: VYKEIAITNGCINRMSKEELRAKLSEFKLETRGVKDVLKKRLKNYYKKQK

Variants of: B1
MEASUREMENT NOTES: abundance fitness (aPCA) (normalised: wild type 0, dead -1); higher = more abundant; growth selection in yeast, the domain comes from the species named
CONDITION DETAILS: Homo sapiens
Give true (1) when the value for abundance fitness is at least -0.3. Give false (0) when it is less.

{"MACROMOLECULE SEQUENCE": "VYKEIAITNGCINRMSKEELRAKLSEFKVETRGVKDVLKKRLKNYYKKQK", "CLASSIFICATION": "false (0)"}
{"MACROMOLECULE SEQUENCE": "VHKEIAITNGCINRMSKEELRAKLSEFKLETRGVKDVLKKRLKNYYKKQK", "CLASSIFICATION": "true (1)"}
{"MACROMOLECULE SEQUENCE": "VYKEIAITNRCINRMSKEELRAKLSEFKLETRGVKDVLKKRLKNYYKKQK", "CLASSIFICATION": "true (1)"}
{"MACROMOLECULE SEQUENCE": "VYKEIAITNGCINRMSKEELRAKLSEWKLETRGVKDVLKKRLKNYYKKQK", "CLASSIFICATION": "false (0)"}
{"MACROMOLECULE SEQUENCE": "VYKEIAITNGCINRMSKEELRAKLSEAKLETRGVKDVLKKRLKNYYKKQK", "CLASSIFICATION": "true (1)"}

Confirm if abundance fitness reported for the variant VYKEIAITNGCINRMSKEELRAKLSEFKLETRGRKDVLKKRLKNYYKKQK is -0.3 or above.
true (1)

Confirm if abundance fitness reported for the variant VYKEIAITNGVINRMSKEELRAKLSEFKLETRGVKDVLKKRLKNYYKKQK is -0.3 or above.
true (1)

Confirm if abundance fitness reported for the variant VYKEIAITNSCINRMSKEELRAKLSEFKLETRGVKDVLKKRLKNYYKKQK is -0.3 or above.
true (1)

Confirm if abundance fitness reported for the variant VYKEIAITNGCINRMSKEELRAKLSEFELETRGVKDVLKKRLKNYYKKQK is -0.3 or above.
true (1)

Confirm if abundance fitness reported for the variant VYKEIAITNGCINRMSKEELRAKLSEFFLETRGVKDVLKKRLKNYYKKQK is -0.3 or above.
false (0)

Confirm if abundance fitness reported for the variant VYKEIAITNGCINRMSKEELRAKLSEFKYETRGVKDVLKKRLKNYYKKQK is -0.3 or above.
false (0)

Confirm if abundance fitness reported for the variant VYKEIAITNGCINRMSKEELRAKLSEFKLETRGVKDVLGKRLKNYYKKQK is -0.3 or above.
false (0)

Confirm if abundance fitness reported for the variant VYKEIAITNGCINRMSKEELRAKLSEFKLETNGVKDVLKKRLKNYYKKQK is -0.3 or above.
false (0)

Confirm if abundance fitness reported for the variant VYKEIAIWNGCINRMSKEELRAKLSEFKLETRGVKDVLKKRLKNYYKKQK is -0.3 or above.
false (0)

Confirm if abundance fitness reported for the variant VYKEIAITNGCINRMSKEELRAKLSEFKLETRGYKDVLKKRLKNYYKKQK is -0.3 or above.
true (1)

Confirm if abundance fitness reported for the variant VYKEIAITNLCINRMSKEELRAKLSEFKLETRGVKDVLKKRLKNYYKKQK is -0.3 or above.
false (0)

Confirm if abundance fitness reported for the variant VCKEIAITNGCINRMSKEELRAKLSEFKLETRGVKDVLKKRLKNYYKKQK is -0.3 or above.
true (1)
